Test system: Enterococcus faecalis
assay-explanation: Antibacterial activity against Enterococcus faecalis MTCC439 after 24 hrs by spectrophotometry
Format: functional
condition-parameters: MTCC439, 24 h
Provide the recorded MIC for the entries that follow.
Numbers only, in µg/mL.

# example entries with known answers
- compound: "CC(=O)NC[C@H]1CN(c2ccc(N3CCN(C(=O)Cn4cnc([N+](=O)[O-])c4)CC3)c(F)c2)C(=O)O1"
  unit-spec: "µg/mL"
  MIC: 25
- compound: "CC(=O)NC[C@H]1CN(c2ccc(N3CCOCC3)c(F)c2)C(=O)O1"
  unit-spec: "µg/mL"
  MIC: 3.12
- compound: "CC(=O)NC[C@H]1CN(c2ccc(N3CCN(CC(O)Cn4c([N+](=O)[O-])cnc4C)CC3)c(F)c2)C(=O)O1 (stereo not given in full)"
  unit-spec: "µg/mL"
  MIC: 1.56
- compound: "CC(=O)NC[C@H]1CN(c2ccc(N3CCN(C(=O)Cn4c([N+](=O)[O-])cnc4C)CC3)c(F)c2)C(=O)O1"
  unit-spec: "µg/mL"
  MIC: 6.25

We next turn to a different compound, shown below.
I would be grateful if you could share the reported MIC for CC(=O)NC[C@H]1CN(c2ccc(N3CCN(CCCn4ccnc4[N+](=O)[O-])CC3)c(F)c2)C(=O)O1 .
12.5
